Some binders, each annotated with its measured Kmapp.
# system_name: T1, Recombinant microbial transglutaminase (mTG) (Streptoverticillium mobaraense, UniProt P81453 77-407)
# T1 sequence (looked up): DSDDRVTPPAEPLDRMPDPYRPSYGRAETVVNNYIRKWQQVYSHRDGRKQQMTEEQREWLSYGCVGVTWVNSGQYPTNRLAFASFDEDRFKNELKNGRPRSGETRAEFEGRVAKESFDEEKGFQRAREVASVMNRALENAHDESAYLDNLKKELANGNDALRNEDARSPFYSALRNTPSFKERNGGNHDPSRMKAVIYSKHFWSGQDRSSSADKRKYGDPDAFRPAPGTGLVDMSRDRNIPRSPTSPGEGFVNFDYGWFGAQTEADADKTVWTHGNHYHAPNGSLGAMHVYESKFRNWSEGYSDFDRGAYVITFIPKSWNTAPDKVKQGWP
# protocol: cell-based or functional assay
Where no end group is shown, it is not given here.
Answer in µM, number only, no unit symbol.

Worked examples follow.
In [3]: df
Out[3]:
                                     binder  metric_name  result_value
0  YEAQR (also: biotinylated, position not given here) [BEST3]        Kmapp          0.08
1  DVYSQH (also: biotin tag, position not given here) [bDH6Q5]        Kmapp          33.1

Problem: Any idea what Kmapp was measured for PLVQSH (also: biotin tag, position not given here) [bPH6Q4] ?
Result: 14.8

Problem: Also check YEAQK (also: biotinylated, position not given here) [BEST2]
Result: 0.114
